system: PC49; test: qHTS profiling for inhibitors of Plasmodium falciparum proliferation (AID 504749); also: nearly all actives have a fitted effect of over 60% in size; conditions: P. falciparum in erythrocytes, SYBR Green DNA, 72 h; series mostly up to 28.7 µM
Inconclusive results are not listed. Calls of active or inactive are those of the source. Calls follow the shape of the dose curve; as a rule, active = well fitted inhibition curve with a large enough effect; inconclusive = small, poorly fitted or top-dose-only effect; inactive = flat fitted curve, though single readings scatter.
Write down the outcome that applies. Available outcomes: 1 (yes) for active, 0 (no) for inactive

Worked examples follow.
{"MOLECULE": "OCCCNc1ccccc1", "LABEL": "0 (no)"}
{"MOLECULE": "CC(C)O", "LABEL": "0 (no)"}
{"MOLECULE": "CC/C(=C(/CC)c1ccc(OP(=O)(O)O)cc1)c1ccc(OP(=O)(O)O)cc1", "LABEL": "0 (no)"}
{"MOLECULE": "COc1ccc(/C=C/C(=O)O)cc1", "LABEL": "0 (no)"}
{"MOLECULE": "O=[N+]([O-])c1c(Cl)cccc1-c1c[nH]cc1Cl", "LABEL": "0 (no)"}
{"MOLECULE": "O.O.O.O.O.O.O.O=S(=O)([O-])[O-].[Co+2]", "LABEL": "1 (yes)"}

Continue with the molecule presented below.
Request: Could you kindly confirm the outcome this assay logged for OC1OC[C@@H](O)[C@H](O)[C@@H]1O (some centres not stated) ?
Result: 0 (no)

---

tested on: ECU; assay: qHTS profiling for inhibitors of Plasmodium falciparum proliferation (AID 504749); also: nearly all actives have a fitted effect of over 60% in size; conditions: P. falciparum in erythrocytes, SYBR Green DNA, 72 h; series mostly up to 28.7 µM
Results filed as inconclusive are left out. The source made the active and inactive calls. Calls come from the whole dose curve; as a rule, active = well fitted inhibition curve with a large enough effect; inconclusive = small, poorly fitted or top-dose-only effect; inactive = flat fitted curve, though single readings scatter.
One label from this list, please: 1.0 for active, 0.0 for inactive

Examples with answers:
{"COMPOUND": "CN=C1C=CC(=C(c2ccc(N(C)C)cc2)c2ccc(N(C)C)cc2)C=C1", "LABEL": 1.0}
{"COMPOUND": "CCCC(CCC)C(=O)OC1C[C@H]2CC[C@@H](C1)[N+]2(C)C (some centres not stated)", "LABEL": 1.0}
{"COMPOUND": "CC(C)CCCC(C)NC(C)C (configuration not stated)", "LABEL": 0.0}

Request: Give the logged outcome of this assay for the following compound: CN1C(=O)C[C@@H](C(=O)N[C@@H](Cc2cnc[nH]2)C(=O)N2CCC[C@H]2C(N)=O)NC1=O
Result: 0.0

Request: Lab log entry: O=P(O)(O)OP(=O)(O)OP(=O)(O)O — outcome as called in the assay?
Result: 0.0

Request: How did this test come out for CCN(CC)CCC(=O)N1c2ccccc2Sc2ccc(C(F)(F)F)cc21 ?
Result: 0.0

Request: What did this assay record as the result for NCC[C@H](O)C(=O)N[C@@H]1C[C@H](N)[C@@H](O[C@H]2O[C@H](CN)CC[C@H]2N)[C@H](O)[C@H]1O[C@H]1O[C@H](CO)[C@@H](O)[C@H](N)[C@H]1O ?
Result: 0.0

Request: How was CN1c2c(nc(N)[nH]c2=O)NCC1CNc1ccc(C(=O)NC(CCC(=O)O)C(=O)O)cc1 (configuration not stated) classified in this test?
Result: 0.0

Request: Give the logged outcome of this assay for the following compound: c1ccc2c(c1)Sc1ccccc1N2CCN1CCCC1
Result: 1.0

Request: Which outcome was assigned to COc1ccc2c(c1)OC(C)(C)C(c1ccccc1)C2c1ccc(OCCN2CCCC2)cc1 (configuration not stated) in this test?
Result: 1.0

Request: Write down the call the test reported for this compound. Item: Cc1cccc(Nc2ncccc2C(=O)O)c1C
Result: 0.0

---

tested on: TAB165; test: qHTS profiling for inhibitors of Plasmodium falciparum proliferation (AID 504749); also: nearly all actives have a fitted effect of over 60% in size; settings: P. falciparum in erythrocytes, SYBR Green DNA, 72 h; series mostly up to 28.7 µM
Inconclusive results are not listed. Active and inactive are the calls of the source. Calls follow the shape of the dose curve; as a rule, active = well fitted inhibition curve with a large enough effect; inconclusive = small, poorly fitted or top-dose-only effect; inactive = flat fitted curve, though single readings scatter.
Would you mind answering with one of these outcomes? active, inactive

Recorded results for 2 molecules are shown here.
{"MOLECULE": "NCC[C@H](O)C(=O)N[C@@H]1C[C@H](N)[C@@H](O[C@H]2O[C@H](CN)[C@@H](O)[C@H](O)[C@H]2O)[C@H](O)[C@H]1O[C@H]1O[C@H](CO)[C@@H](O)[C@H](N)[C@H]1O", "TEST_SYSTEM": "TAB165", "LABEL": "inactive"}
{"MOLECULE": "NCC[C@H](O)C(=O)N[C@@H]1C[C@H](N)[C@@H](O[C@H]2O[C@H](CN)CC[C@H]2N)[C@H](O)[C@H]1O[C@H]1O[C@H](CO)[C@@H](O)[C@H](N)[C@H]1O", "TEST_SYSTEM": "TAB165", "LABEL": "inactive"}

Request: Please state the recorded outcome for this molecule: CN1CCC(OC(=O)C(Oc2ccc(Cl)cc2)Oc2ccc(Cl)cc2)CC1
Result: inactive

Request: Can you look up the reported call for CCCCCCCCCCCCCCCCCC(=O)OC[C@@H](O)[C@H]1OC[C@H](O)[C@H]1O for me?
Result: inactive

Request: Per the records of this test, what outcome belongs to Cc1cc2nc3c(=O)[nH]c(=O)nc-3n(C[C@H](O)[C@H](O)[C@H](O)COP(=O)(O)OP(=O)(O)OC[C@H]3O[C@@H](n4cnc5c(N)ncnc54)[C@H](O)[C@@H]3O)c2cc1C ?
Result: inactive

Request: Please indicate how the test categorized CCCCCCCCCCCCCCCCCC(=O)OCC(C)O (stereo unspecified) .
Result: inactive

Request: Recorded call for C[C@]12CCC(=O)C[C@@H]1CC[C@@H]1[C@@H]2CC[C@]2(C)C=CC[C@@H]12 ?
Result: inactive

Request: What did this assay record as the result for CCCCC[C@H](O)/C=C/[C@@H]1[C@H]2C/C(=C/CCCC(=O)O)O[C@H]2C[C@H]1O ?
Result: inactive

---

system: KB-3-1; assay: Cytotoxic Profiling of Annotated Libraries Using Quantitative High-Throughput Screening (AID 1296008); conditions: Five cell lines viability, CellTiter-Glo ATP luminescence, 48-72 h; active compounds read low
Inconclusive results are not listed.
RECORDED_ENDPOINT: max response (%)
Give your result in % as a bare value.

Worked set:
{"COMPOUND": "Cc1ncc(COP(=O)(O)O)c(CN)c1O", "max response, %": -6.16}
{"COMPOUND": "CC(=O)OCC1=C(C(=O)O)N2C(=O)[C@@H](NC(=O)Cc3ccccc3)[C@H]2SC1", "max response, %": -5.45}
{"COMPOUND": "CO[C@@]1(NC(=O)C2SC(=C(C(N)=O)C(=O)O)S2)C(=O)N2C(C(=O)O)=C(CSc3nnnn3C)CS[C@@H]21 (stereo partly specified)", "max response, %": 1.97}
{"COMPOUND": "CCCCC[C@H](O)/C=C/[C@H]1[C@H](O)CC(=O)[C@@H]1C/C=C\\CCCC(=O)O", "max response, %": 7.78}
{"COMPOUND": "CCc1cn([C@H]2C[C@H](O)[C@@H](CO)O2)c(=O)[nH]c1=O", "max response, %": 5.47}
{"COMPOUND": "CC(CN1c2ccccc2Sc2cccnc21)N(C)C (stereo unspecified)", "max response, %": -2.53}
{"COMPOUND": "O=C(O)/C=C/c1ccccc1", "max response, %": 5.56}
{"COMPOUND": "O=C(NCCNCC(O)COc1ccc(O)cc1)N1CCOCC1 (stereo unspecified)", "max response, %": 1.66}
{"COMPOUND": "CCCCCCCCCCCCCCCCCCOCC(COP(=O)([O-])OCC[N+](C)(C)C)OC (stereo unspecified)", "max response, %": 0.811}
{"COMPOUND": "CCC(Cc1c(I)cc(I)c(O)c1I)C(=O)O (stereo unspecified)", "max response, %": -4.91}

Here is the next item to consider.
Request: Find the recorded max response belonging to O=P(O)(O)OC[C@H](O)CO and report it.
Result: -16.7

---

system: CP191; assay: qHTS profiling for inhibitors of Plasmodium falciparum proliferation (AID 504749); also: nearly all actives have a fitted effect of over 60% in size; conditions: P. falciparum in erythrocytes, SYBR Green DNA, 72 h; series mostly up to 28.7 µM
Results filed as inconclusive are left out. Active and inactive are the calls of the source. Calls come from the whole dose curve; as a rule, active = well fitted inhibition curve with a large enough effect; inconclusive = small, poorly fitted or top-dose-only effect; inactive = flat fitted curve, though single readings scatter.
The reply should name one outcome from true (active), false (inactive)

{"COMPOUND": "C=CC(C)(O)CC/C=C(\\C)CCC=C(C)C (centres undefined)", "LABEL": "false"}
{"COMPOUND": "CCCCC", "LABEL": "false"}
{"COMPOUND": "N[C@H](CC(=O)O)C(=O)O", "LABEL": "false"}

Request: Which outcome was entered for the compound CCN(CC)CCCC(C)Nc1cc(/C=C/c2ccccc2Cl)nc2cc(Cl)ccc12 (centres undefined) in this test?
Result: true

Request: # fetch the recorded call for CCCCCCCCCCCCCC(=O)OCC(COP(=O)([O-])OCC[N+](C)(C)C)OC(=O)CCCCCCCCCCCCC (centres undefined) here
Result: false

Request: Recorded test outcome, item O=C1c2ccccc2C(=O)c2c1ccc(O)c2O
Result: false

Request: What did the test return for CN1CCC(OC(=O)C(Oc2ccc(Cl)cc2)Oc2ccc(Cl)cc2)CC1 ?
Result: false

Request: Recorded call for CCCCCc1ccc(C)cc1O ?
Result: false

Request: Hi team, can someone confirm the assay call for CSc1nc2cc(Oc3cccc(Cl)c3Cl)c(Cl)cc2[nH]1 ?
Result: true

Request: Could you kindly confirm the outcome this assay logged for COc1ccc(/C=C/C(=O)OCCC(C)C)cc1 ?
Result: false

Request: Hey, what did the test say about O=c1[nH]c(=O)n([C@H]2C[C@H](O)[C@@H](CO)O2)cc1/C=C/Br ?
Result: false

Request: Name the outcome recorded for CC(CN(C)C)CN1c2ccccc2Sc2ccc(C(F)(F)F)cc21 (centres undefined) in the assay.
Result: true

Request: Kindly provide the recorded test outcome for the following compound: Cc1cc2nc3c(=O)[nH]c(=O)nc-3n(C[C@H](O)[C@H](O)[C@H](O)COP(=O)(O)OP(=O)(O)OC[C@H]3O[C@@H](n4cnc5c(N)ncnc54)[C@H](O)[C@@H]3O)c2cc1C
Result: false

Request: How did this test come out for CCCC(=O)O ?
Result: false

Request: Per the records of this test, what outcome belongs to O=C(O)c1ccc(OCCn2ccnc2)cc1 ?
Result: false

Request: Returns: the outcome recorded for Cc1c(C)c2c(c(C)c1OC(=O)CCC(=O)O)CC[C@@](C)(CCC[C@H](C)CCC[C@H](C)CCCC(C)C)O2 in this assay.
Result: false

Request: # outcome recorded in this test, key = O=[n+]1ccn([O-])c2ccccc21
Result: false

Request: Which outcome was entered for the compound FC(F)(F)COCC(F)(F)F in this test?
Result: false

Request: Which outcome was assigned to CN(C)c1ccc(C(=C2C=CC(=[N+](C)C)C=C2)c2c(O)c(S(=O)(=O)[O-])cc3cc(S(=O)(=O)O)ccc23)cc1 in this test?
Result: false
